From: PubChem BioAssay AID1259407

system: CCRIS mutagenicity, Ames/micronucleus/aberration tests; assay: CCRIS mutagenicity studies; details: Test System: AMES SALMONELLA TYPHIMURIUM; Strain/Indicator: TA98; Metabolic Activation: NONE; Method: PREINCUBATION
Activity calls are given as the source filed them. The rule behind the calls is not given here.
measured-attribute: mutagenic call

Guide cases for mutagenic call, answers given:
compound	endpoint-result
O=C(O)C(Cl)=C(C(Cl)Cl)C(Cl)Cl	active; positive
C[N+](C)(C)Cc1ccccc1	inactive; negative
O=c1oc2cc([N+](=O)[O-])ccc2c2ccccc12	active; positive
CCC=O	inactive; negative
CCOC(=O)CC(SP(=O)(OC)OC)C(=O)OCC (centres undefined)	inactive; negative

q: Which value of mutagenic call has been reported for CC(C)CCCCCCCOC(=O)c1ccccc1C(=O)OCCCCCCCC(C)C in the records?
a: inactive; negative

q: Find the recorded mutagenic call belonging to NCc1ccc(CN)cc1 and report it.
a: inactive; negative

q: Bench note: what mutagenic call did O=[N+]([O-])c1ccc(-c2ccc([N+](=O)[O-])cc2)cc1 show?
a: active; positive

q: Report mutagenic call for CO/N=C(\C(=O)N[C@@H]1C(=O)N2C(C(=O)OCOC(=O)C(C)(C)C)=C(/C=C\c3scnc3C)CS[C@H]12)c1csc(N)n1 please.
a: inactive; negative

q: Could you share which mutagenic call value was measured for O=[N+]([O-])c1ccc2c(c1)Oc1ccc([N+](=O)[O-])cc1O2 ?
a: active; positive

q: Fill blank: measured mutagenic call of the compound Cc1ccc2c(c1)C(=O)c1ccccc1C2=O is ____.
a: inactive; negative

q: Fill blank: measured mutagenic call of the compound O=c1c(O)c(-c2ccc(O)c(O)c2)oc2cc(O)cc(O)c12 is ____.
a: active; positive

q: mutagenic call for O=C/C=C/C=C/C=O ?
a: inactive; negative

q: Give its mutagenic call value. Item: CCNCC
a: inactive; negative

q: Look at this compound and give its reported mutagenic call. CC=O
a: inactive; negative

q: # query: mutagenic call of entry c1ccc(P(c2ccccc2)c2ccccc2)cc1
a: inactive; negative

q: Given Cc1ccc(OP(=O)(Oc2ccc(C)cc2C)Oc2ccc(C)cc2C)c(C)c1 , state its recorded mutagenic call.
a: inactive; negative

q: I would be grateful if you could share the reported mutagenic call for O=C1Nc2ccc(Cl)cc2C(c2ccccc2)=NC1O (centres undefined) .
a: inactive; negative

q: Reported mutagenic call for O=C(Nc1ccccc1)c1cc2ccccc2c(N=Nc2cc(Cl)ccc2Cl)c1O : what is it?
a: inactive; negative

q: Request the reported mutagenic call associated with Cc1ccc(O)c(N)c1
a: inactive; negative

q: Name the recorded mutagenic call for O=c1n(Cl)c(=O)n(Cl)c(=O)n1Cl .
a: inactive; negative

q: Endpoint output: mutagenic call of Cc1c2ccccc2c(C)c2c1c1c(c3ccccc32)N1 . Value?
a: active; positive

q: Using the record for COc1cc2c(c3oc(=O)c4c(c13)CCC4=O)[C@@H]1C=CO[C@@H]1O2 , report its mutagenic call.
a: inactive; negative

q: I am curious: what mutagenic call value has been reported for O=NN1CCOCC1 ?
a: inactive; negative

q: Give the measured mutagenic call of C=C(C)C(=O)OCC(C)C .
a: inactive; negative

q: Bench note: what mutagenic call did c1cnc2cnncc2c1 show?
a: inactive; negative

---

tested on: CCRIS mutagenicity, Ames/micronucleus/aberration tests; test: CCRIS mutagenicity studies; details: Test System: AMES SALMONELLA TYPHIMURIUM; Strain/Indicator: TA98; Metabolic Activation: NONE; Method: STANDARD PLATE
Calls of active or inactive are those of the source. No rule for the calls is given here.
Reply using exactly one outcome from Yes = active, No = inactive

q: What did this assay record as the result for O=c1c(O)c(O)c1=O ?
a: No

q: So what was the verdict on CCc1ccco1 in this test?
a: No

q: Per the assay record, what outcome was assigned to ClCc1cccc(CCl)c1 ?
a: No

q: Identify the outcome logged in this assay for the compound shown: CC(C)NCC(O)COc1cccc2c1C=CC2 (stereo not drawn)
a: No

q: Look up the recorded call for O=[N+]([O-])c1ccc2c3c4c(cccc4c4ccccc4c13)[C@H](O)[C@H]2O in this test.
a: Yes

q: Could you kindly confirm the outcome this assay logged for CC(=O)n1ccnc1 ?
a: No

q: Could you kindly confirm the outcome this assay logged for CC(=O)OCC1=CO[C@@H](OC(=O)CC(C)C)[C@H]2C1=C[C@H](OC(=O)CC(C)C)[C@]21CO1 ?
a: No

q: Outcome logged for [O]=[Zr] in this assay:
a: No

q: How was Cc1ccc(C)cc1 classified in this test?
a: No

q: # outcome recorded in this test, key = C=C(C)C(=O)OC(C)(C)C
a: No

q: Record lookup: outcome of this test for CC1(C)CCC[C@]2(C)[C@H]3CC=C(C=O)[C@@H](C=O)[C@]3(C)CC[C@@H]12 ?
a: No

q: Hi, sorry to bother you, what did the test record for C=C(C)C(=O)OCCO ?
a: No

q: Give the logged outcome of this assay for the following compound: OC1C[C@]23C=CC=C[C@@]2(C1)O3 (stereo partly drawn)
a: No

q: Look up the recorded call for Cc1ccc(O)c(N)c1 in this test.
a: No

q: Per the assay record, what outcome was assigned to O=C/C=C/c1ccc([N+](=O)[O-])o1 ?
a: Yes

q: Tell me the recorded outcome of this test for CCOP(=O)(OCC)O/C(=C\Cl)c1ccc(Cl)cc1Cl .
a: No

q: Name the outcome recorded for Cc1cccc2cc3ccccc3cc12 in the assay.
a: No

q: # outcome recorded in this test, key = COc1ccc(-c2nc(-c3ccc(C)cc3)c(-c3ccc(C)cc3)[nH]2)cc1OC
a: Yes

q: Look up the recorded call for O=c1c(O)c(-c2ccc(O)c(O)c2)oc2cc(O)cc(O)c12 in this test.
a: Yes

q: Returns: the outcome recorded for Nc1ccc(S(=O)(=O)Nc2nccs2)cc1 in this assay.
a: No

q: Which outcome was entered for the compound Cc1ccc(C)c2c1[nH]c1ccccc12 in this test?
a: No

q: Assay outcome for Cc1nc2c(c3[nH]c4ccccc4c13)C(=O)C(N1CC1)=CC2=O : what was it?
a: Yes

q: # outcome recorded in this test, key = CC(C)N(C(=O)SCC(Cl)=C(Cl)Cl)C(C)C
a: No

q: Which result was noted for this compound in the test: ClCc1ccncc1
a: No

q: Status in this test for CC(=O)/C=C/c1ccccc1 ?
a: No

q: GET /call?item= CC(=O)c1oc([N+](=O)[O-])c(-c2ccccc2)c1-c1ccccc1 returns the recorded outcome of this test.
a: Yes

q: Entry O=C1c2ccccc2-c2cc3ccccc3cc21 : call = ?
a: Yes

q: Could you please tell me the result logged for Cc1ccc(/C=C/c2ccc(N)cc2)cc1 in this assay?
a: No

q: Recorded call for O=[N+]([O-])c1ccc2cc3c(cc2c1)[C@H](O)[C@@H](O)C=C3 ?
a: Yes

q: Hello, I am checking results. What call was entered for OCc1c2ccccc2cc2c1ccc1ccccc12 ?
a: Yes

q: Outcome logged for Cc1ccc2ccc3ccc(C)cc3c2c1 in this assay:
a: No

q: Given C=COC(C)=O , state the outcome it received in this test.
a: No

q: What was the test verdict on Nc1ccc(-c2ccc(N)c([N+](=O)[O-])c2)cc1 ?
a: Yes

q: Would you mind telling me which call this test gave O=C1c2ccc3nc(-c4ccccc4)sc3c2C(=O)c2ccc3nc(-c4ccccc4)sc3c21 ?
a: No

q: Check the results log: what was the call for OCc1cc2ccc3cccnc3c2[nH]1 ?
a: No

q: Would you mind telling me which call this test gave O=[N+]([O-])c1ccc2cc3c(cc2c1)C=C[C@@H](O)[C@@H]3O ?
a: Yes

q: # fetch the recorded call for CCOC1=CC(=O)C(NC(C)=O)=CC1=O here
a: Yes

q: Dear all, I need the recorded test outcome for O=C1C=Cc2ccc3c4c(ccc1c24)C=CC3=O , thank you.
a: No

q: Test call, this compound: COc1cc(O)c2c(=O)oc3cc(O)cc(C)c3c2c1
a: No

q: Fill in: this test's call for C1CCC2OCCOCCOCCOC3CCCCC3OCCOCCOCCOC2C1 (stereo not drawn) is ___
a: No

q: # lookup: test call for Cc1ccc(NS(=O)(=O)c2cccc3cccnc23)cc1
a: No

q: Give the logged outcome of this assay for the following compound: CN1CCN(c2ccc3nc(-c4ccc5nc(-c6ccc(N(CCCl)CCCl)cc6)[nH]c5c4)[nH]c3c2)CC1
a: No

q: Just curious, what result did Cn1c(NO)nc2c3cccnc3ccc21 get here?
a: Yes

q: Hi, sorry to bother you, what did the test record for COc1cc(O)c2c(c1)C1=C[C@H](O)[C@@H](O)C[C@]1(C)OC2=O ?
a: No

q: Entry CN(C)CCNS(=O)(=O)c1cccc2cccnc12 : call = ?
a: No

q: Look up the recorded call for O=[N+]([O-])c1cc2[nH]c3ccc4ccc(O)cc4c3c2c2ccccc12 in this test.
a: Yes

q: For this compound, state the assay outcome: O=c1c(Cl)c(Cl)cnn1S(=O)(=O)c1ccc([N+](=O)[O-])cc1
a: Yes

q: Test call for this compound, please: CC(=O)OCCN(CCOC(C)=O)c1ccc([N+](=O)[O-])c2c(NCCCN(C)C)c3ccccc3nc12
a: Yes

q: Hey, what did the test say about BrCc1ccccc1CBr ?
a: No

q: Given CCCCCCCCCCSCn1cc[n+](C)c1 , state the outcome it received in this test.
a: No

q: Any idea what this test logged for O=[N+]([O-])c1c(Cl)cc2c(c1Cl)Oc1cc(Cl)c(Cl)cc1O2 ?
a: No

q: For Cc1ccc(C)c2c1ccc1ccccc12 , what call appears in the results of this test?
a: No

q: What was the test verdict on ClCc1ccc2ccc3cccc4ccc1c2c34 ?
a: Yes
